meta.source: ChEMBL document CHEMBL2311259

Test system: MCF7
Experiment: Ratio of colchicine IC50 to compound IC50 for human MCF7 cells by SRB assay
Assay type: functional
# Ratio IC50 listing for each entry below
attribute-measured: Ratio IC50

[
  {
    "compound": "COc1ccc2c(c1)Oc1ncn(N)c(=N)c1C2c1ccc(Cl)cc1 (mixture of isomers)",
    "observed-measurement": 1.5
  },
  {
    "compound": "COc1ccc2c(c1)Oc1ncn(C)c(=N)c1C2c1ccc(Cl)cc1 (racemic)",
    "observed-measurement": 2
  },
  {
    "compound": "CCOC(=O)c1nc2c3c(ncn2n1)Oc1cc(OCC)ccc1C3c1ccc(Cl)cc1 (racemic)",
    "observed-measurement": 2
  },
  {
    "compound": "COc1ccc(-c2nc3c4c(ncn3n2)Oc2cc(OC)ccc2C4c2ccc(Cl)cc2)cc1 (racemic)",
    "observed-measurement": 1.5
  },
  {
    "compound": "CCOc1ccc2c(c1)Oc1ncn3nc(-c4ccc(OC)cc4)nc3c1C2c1ccc(Cl)cc1 (racemic)",
    "observed-measurement": 1.5
  }
]
